System: BT-549 breast
method.description: NCI-60 one-dose screen, 48 h (100 = growth as untreated, 0 = no growth, -100 = all killed)
study.conditions: 10 µM unless noted
This is part of a sample that, as a whole, favours compounds with a hit. Of some 83,000 tested, about 20% had one in any assay.
property.measured: growth (%)

>>> measured_value("C#CCn1c(-c2cc(OC)c(OC)cc2Br)nc(-c2ccccc2)c1-c1ccccc1")
60.7
>>> measured_value("Cc1c(F)cccc1NC(=O)c1sc2nc3c(cc2c1N)CCCCC3")
73.6
>>> measured_value("COc1cc2c(cc1OCCCCC(=O)Nc1ccc(-c3nc4ccccc4s3)cc1)N=C[C@@H]1CCCN1C2=O")
-76.4
>>> measured_value("O=C(NCCNc1nccc(-c2c(-c3cccc(O)c3)nc3sccn23)n1)c1ccc(N2CCOCC2)c(C(F)(F)F)c1")
53.8
>>> measured_value("NC(CSC(c1ccccc1)(c1ccccc1)c1ccc(F)cc1)C(=O)O (stereo not given)")
28.7

====

Test system: TK-10 renal
method.description: NCI-60 one-dose screen, 48 h (100 = growth as untreated, 0 = no growth, -100 = all killed)
study.conditions: 10 µM unless noted
The panel holds about 83,000 compounds, 20% with a hit somewhere; the sample as a whole holds those more often.
Here, each record is paired with measured growth data.
property.measured: growth (%)

>>> measured_value("Nc1nc(Cl)cc(NCc2ccc(CNc3cc(Cl)nc(N)n3)cc2)n1")
124
>>> measured_value("O=C(Cn1c2ccccc2c2ccncc21)N/N=C/c1c[nH]c2ccccc12")
113
>>> measured_value("Nc1n[nH]c2cccc(C#Cc3cccc(NC(=O)c4cccc(C(F)(F)F)c4)c3)c12")
41
>>> measured_value("COc1cc(/C=C\\c2cc(/C=C\\c3ccc(O)c(OC)c3)n(C(=O)CNc3ccccc3OC)n2)ccc1O")
113
>>> measured_value("COc1ccc2c(c1)OC(N(C(C)=O)C(C)=O)=C(C#N)C2c1ccc(F)cc1 (centres undefined)")
71.2
>>> measured_value("COc1cc(NS(=O)(=O)c2ccc(N)cc2)ncn1")
130
>>> measured_value("COc1ccc(-c2cc(-c3nnc(SC/C(=N\\O)c4ccccc4)n3-c3ccccc3)c3ccccc3n2)cc1")
123
>>> measured_value("COc1ccc2c(c1)C(=O)/C(=C/c1ccc(OCC(=O)c3ccc(Cl)cc3)cc1)O2")
132
>>> measured_value("Cc1ccc2c(C3C(C#N)=C(N)Oc4cc5ccccc5cc43)cc(=O)oc2c1 (centres undefined)")
47.6
>>> measured_value("COc1ccccc1N1CCN(CCCOc2ccc(OCCCN3CCN(c4ccccc4OC)CC3)c(C(=O)c3cc(OC)c(OC)c(OC)c3)c2)CC1")
123
>>> measured_value("CC(C)(c1ccc(OCC(O)CNCc2ccco2)cc1)c1ccc(OCC(O)CNCc2ccco2)cc1 (centres undefined)")
93.1
>>> measured_value("COc1cc(/C=C/C(=O)c2c(C)[n+]([O-])c3ccccc3[n+]2[O-])ccc1O")
55.9
>>> measured_value("O=C(O)c1ccc(-n2cc(/C=N/Nc3ccccc3F)c(-c3ccc(O)cc3)n2)cc1")
102
>>> measured_value("Cc1ccc(Cn2cc(COc3ccc4c5ccnc(C)c5n(CCCc5ccccc5)c4c3)nn2)cc1")
97.8
>>> measured_value("COc1ccc(-c2c(NC(=O)Nc3ccc(Cl)c(C(F)(F)F)c3)cnn2-c2ccc(S(N)(=O)=O)cc2)cc1")
30.9
>>> measured_value("COc1ccc(-c2nnc(SCC(=O)Nc3ccc(C(=O)/C=C/c4ccc(Cl)cc4)cc3)o2)cc1OC")
52.8
>>> measured_value("C=CCn1c(SCC(=O)Nc2ccc(/C(C)=N\\O)cc2)nnc1-c1cc(-c2ccc(OC)cc2)nc2ccccc12")
37.5
>>> measured_value("Cc1ccc(-c2cc(-c3nnc(SCC(=O)c4ccccc4)o3)c3ccccc3n2)cc1")
61.8
>>> measured_value("CCC1S/C(=N\\N=C(/C)c2cccs2)N(c2ccccc2)C1=O (centres undefined)")
114

====

System: LOX IMVI melanoma
method.description: NCI-60 one-dose screen, 48 h
study.conditions: 10 µM unless noted
About 83,000 compounds went through this panel and 20% of them were active in at least one assay; those are over-represented in the sample as a whole. Activity calls are given as the source filed them. Rule for the calls: active = growth percent below 10; inactive = the rest.
Labels: true = active, false = inactive

>>> assigned_class("CC(CCC(=O)O)[C@H]1CCC2C3C(=O)C[C@@H]4CC(=O)CC[C@]4(C)C3CC(=O)[C@@]21C (some centres undefined)")
"false"
>>> assigned_class("Cc1cc(C)c(O)c(C(=O)CC(Br)C(=O)O)c1 (centres undefined)")
"false"
>>> assigned_class("O=C1OC(c2ccc(-c3ccccc3)cc2)=C/C1=C/C=C/c1ccccc1")
"false"
>>> assigned_class("O=C(CSc1nnc(-c2ccc(Cl)cc2)o1)Nc1ccc(C(=O)/C=C/c2ccccc2)cc1")
"false"
>>> assigned_class("CCNC(=O)Oc1ccc(/C(=C(/CC)Cc2ccccc2)c2ccc(OCCN3CCOCC3)cc2)cc1")
"false"
>>> assigned_class("O=C1COc2ccccc2C(=O)N1CCCCN1CCCCC1")
"false"
>>> assigned_class("COc1ccc(C(=O)Cn2cnc3c(Nc4cc(C(=O)Nc5ccc(N6CCN(CCO)CC6)cc5)ccc4C)ncnc32)cc1")
"false"
>>> assigned_class("Cc1ccc2nc(-c3ccc(-n4on4-c4ccc(/C=C/c5ccc(-n6on6-c6ccc(-c7nc8ccc(C)cc8s7)cc6)cc5S(=O)(=O)O)c(S(=O)(=O)O)c4)cc3)sc2c1")
"false"
>>> assigned_class("Cc1cc(SCc2ccc(Cl)cc2Cl)nc(SCc2ccc(Cl)cc2Cl)n1")
"false"
>>> assigned_class("COC(OC)C1(c2ccccc2)NC(=O)NC1=O (centres undefined)")
"false"
>>> assigned_class("COc1ccc(C(=O)NC(=O)Nc2ccc3c(c2)NC(=O)/C3=C\\c2[nH]c(C)c(CCC(=O)O)c2C)c(F)c1")
"false"
>>> assigned_class("O=C1OC(=O)C2C3CC(c4ccccc43)C12 (centres undefined)")
"false"
>>> assigned_class("ClC1c2ccccc2CCc2ccccc21")
"false"
>>> assigned_class("CN(C)c1ccc(/C=c2\\s/c(=C\\C(=O)C(C)(C)C)[nH]c2=O)cc1")
"false"
>>> assigned_class("S=c1n(CNc2ccc(Cl)nn2)nc(-c2cc(Cl)cc(Cl)c2Cl)n1/N=C/c1ccc(Cl)cc1")
"false"
>>> assigned_class("COc1ccc(C(=O)NC(=O)Nc2ccc3c(c2)NC(=O)/C3=C\\c2[nH]c(C)c(C(=O)O)c2C)cc1")
"false"
>>> assigned_class("C=C(C)[C@@H]1C/C=C(\\COC(=O)[C@H](OC(C)=O)C(NC(=O)c2ccccc2)c2ccccc2)CC[C@H]2O[C@]2(C)CC/C=C(\\C)CC1 (some centres undefined)")
"false"
>>> assigned_class("CCc1c(C)c2cc(-n3c(-c4ccc(OC)cc4)csc3=N)c(O)c(C)c2oc1=O")
"true"
>>> assigned_class("COc1ccc(-c2cc3ccc(N(C)C)cc3nc2N)c(F)c1")
"false"

====

Test system: M14 melanoma
method.description: NCI-60 one-dose screen, 48 h (100 = growth as untreated, 0 = no growth, -100 = all killed)
study.conditions: 10 µM unless noted
Compounds without any hit were thinned out: in the full panel of roughly 83,000, 20% have a hit.
property.measured: growth (%)

>>> measured_value("CN(C)CCNc1nc2ccccc2c2c(=O)c3ccccc3sc12")
-54.7
>>> measured_value("CN[C@@H](CCCNC(N)=NC/C=C(/C)CCC=C(C)C)C(=O)N(C)[C@@H](CCCNC(N)=NCC=C(C)C)C(=O)N[C@H](C)[C@H](OS(=O)(=O)O)c1ccc(OS(=O)(=O)O)c(COS(=O)(=O)O)c1")
105
>>> measured_value("COc1ccc(CNc2nc3ccccc3c3c(=O)c4ccccc4sc23)cc1OC")
86.2
>>> measured_value("COc1ccc(/C=C/C(=O)/C=C(/C=C/c2ccc(OC)c(OC)c2OC)OB(F)F)c(OC)c1OC")
19.1
>>> measured_value("OCc1cn(-c2ccc(Cl)cc2)nc1-c1ccc(O)cc1")
95
>>> measured_value("Cc1ccc(=O)n(-c2ccc(Br)cc2F)c1")
97.4
>>> measured_value("O=C(NCCNc1nccc(-c2c(-c3cccc(O)c3)nc3sccn23)n1)Nc1cc(C(F)(F)F)cc(C(F)(F)F)c1")
21.4
>>> measured_value("CCOC(=O)C(C)(CSSCC(C)(NC(=O)c1ccc2ccccc2c1)C(=O)OCC)NC(=O)c1ccc2ccccc2c1 (centres undefined)")
114
>>> measured_value("Cc1cc(C)c(O)c(C(=O)CC(Br)C(=O)O)c1 (centres undefined)")
95.1

====

System: SN12C renal
method.description: NCI-60 one-dose screen, 48 h (100 = growth as untreated, 0 = no growth, -100 = all killed)
study.conditions: 10 µM unless noted
Compounds without any hit were thinned out: in the full panel of roughly 83,000, 20% have a hit.
Please use Yes whenever growth is not below 90%, and No whenever it is.

>>> assigned_class("CC(=S)Nc1ccccc1")
"Yes"
>>> assigned_class("O=C(Nc1ccc(F)cc1)Nc1ccc(Cl)c([N+](=O)[O-])c1")
"No"
>>> assigned_class("C#CC(=O)/C=C/CCCCCCC#CC(=O)CCC(=O)C#CCCCCCC/C=C/C(=O)C#C")
"No"
>>> assigned_class("CCCCOc1c(N)cccc1C(=O)OCCN(CC)CC")
"Yes"
>>> assigned_class("CC1(C)CC(=O)C2=C(C1)OC1=C(C(=O)CC(C)(C)C1)C2c1ccc(OCc2cn(-c3ccc(F)cc3F)nn2)cc1")
"Yes"
>>> assigned_class("FC(F)(F)c1cn(CCN2CCOCC2)c2ncnc(Cl)c12")
"No"
>>> assigned_class("CCC(C)Nc1ccc(N)cc1 (stereo unspecified)")
"No"
>>> assigned_class("COc1ccc(-c2nn(-c3ccc(NC(=O)c4cc(C(F)(F)F)cc(C(F)(F)F)c4)cc3)cc2-c2ccncc2)cc1Cl")
"No"
>>> assigned_class("NC(CSC(c1ccccc1)(c1ccccc1)c1ccc(F)cc1)C(=O)O (stereo unspecified)")
"No"
>>> assigned_class("COc1ccc(-c2cc3ccc(N(C)C)cc3nc2N)c(F)c1")
"No"
>>> assigned_class("O=S(=O)(O)c1ccc(F)cc1")
"Yes"
